target: T1, soluble human FcRn (human, UniProt P55899 24-297; P61769 21-119, biotinylated (Sulfo-NHS-LC-Biotin) in the ELISA; amine-coupled to CM5 chip in SPR); assay: ELISA, competitor human IgG
T1 construct: also called shFcRn; biotinylated shFcRn
pIC50: −log10 of the molar value. Bridge positions count the residues as written; N and C are the ends. Square brackets hold non-standard residues; d marks the D form. Ends that are not written are not given here. Pen = CC(C)(S)[C@H](N)C(=O)O; Sar = CNCC(=O)O
VALUE KIND: pIC50

QRFXTGHFGGLYPCNGP (Pen at 4; Sar at 10; disulfide; C-terminal amide) [Peptide No. 112] | 6.05

a = QRFXTGHFGGLYPCNGP (Pen at 4; NMeLeu at 11; disulfide; C-terminal amide) [Peptide No. 113]
b = RF[Pen]TGHFG[Sar]YPCNGP-NH2 (disulfide 3-12 (inferred), printed without the Leu after Sar) [Peptide No. 147]
Asked: Between a and b , which one has the lower reported pIC50 value? API: response body contains the label of the selected item.
Given back: a
(a: 5.80, b: 6.00)
